- METHOD_DESCRIPTION: Example 4: Phase I single-dose crossover bioequivalence study, 2.5 mg versus 2 mg tablets, healthy adult volunteers
- Assay type: in vivo, human
- ASSAY_SETUP: human, in vivo, po, 2 mg, Cmax
ASSAY_READOUT: Cmax (ng/mL)

[[record]]
mol_smiles = "N=C(N)NC(=O)Cc1c(Cl)cccc1Cl"
measurement_unit = "ng/mL"
reported_measurement = 1.71


----------
- METHOD_DESCRIPTION: Example 2: open-label dose-escalation pharmacokinetic and safety study in children and adolescents with ADHD
- Format: in vivo, human
- ASSAY_SETUP: both sexes, human, plasma, po, 2 mg, Day 14, 2 mg once daily oral; adolescents 13-17 yrs, ADHD patients, N = 14; read-out: Tmax
ASSAY_READOUT: Tmax (h)

[[record]]
mol_smiles = "N=C(N)NC(=O)Cc1c(Cl)cccc1Cl"
reported_measurement = 4.53


----------
- METHOD_DESCRIPTION: Example 4: Phase I single-dose crossover bioequivalence study, 2.5 mg versus 2 mg tablets, healthy adult volunteers
- Format: in vivo, human
- ASSAY_SETUP: human, in vivo, po, 2.5 mg, Tmax
ASSAY_READOUT: Tmax (h)

[[record]]
mol_smiles = "N=C(N)NC(=O)Cc1c(Cl)cccc1Cl"
reported_measurement = 5


----------
- METHOD_DESCRIPTION: Example 2: open-label dose-escalation pharmacokinetic and safety study in children and adolescents with ADHD
- Assay type: in vivo, human
- ASSAY_SETUP: both sexes, human, plasma, po, 2 mg, single 2 mg oral dose, Day 1; children 6-12 yrs, ADHD patients, N = 14; read-out: Tmax
ASSAY_READOUT: Tmax

[[record]]
molecule = "N=C(N)NC(=O)Cc1c(Cl)cccc1Cl [guanfacine]"
assay_readout = "Tmax"
reported_measurement = "4.98 h"


----------
- METHOD_DESCRIPTION: Example 3: Phase I single-dose crossover bioequivalence/dose proportionality study, 1 mg, 2 mg, 4 mg tablets, healthy adult volunteers
- Format: in vivo, human
- ASSAY_SETUP: human, in vivo, po, 1 mg, Vz/F
ASSAY_READOUT: Vd/F (L)

[[record]]
mol_smiles = "N=C(N)NC(=O)Cc1c(Cl)cccc1Cl"
assay_readout = "Vd/F"
measurement_unit = "L"
reported_measurement = 823


----------
- METHOD_DESCRIPTION: Example 2: open-label dose-escalation pharmacokinetic and safety study in children and adolescents with ADHD
- Format: in vivo, human
- ASSAY_SETUP: both sexes, human, plasma, oral, 2 mg, measured for the 2 mg formulation; fasted patients ages 13-17 suffering from ADHD
- Protocol: Objective: The objective of this study was to assess the pharmacokinetics of controlled-release guanfacine after a single 2 mg dose or multiple doses of 2 mg and 4 mg from Table 2. Methods: An open-label, dose-escalation study in male and female children (aged 6-12 years) and adolescents (aged 13-17 years) with ADHD. […] Their electrocardiogram readings (ECGs) were within normal ranges, and their blood pressure measurements were within the 95th percentile for their age, height, and gender. […]
ASSAY_READOUT: half-life (h)

[[record]]
compound = "N=C(N)NC(=O)Cc1c(Cl)cccc1Cl [guanfacine]"
assay_readout = "half-life"
reported_measurement = 17.9


----------
- METHOD_DESCRIPTION: Example 3: Phase I single-dose crossover bioequivalence/dose proportionality study, 1 mg, 2 mg, 4 mg tablets, healthy adult volunteers
- Assay type: in vivo, human
- ASSAY_SETUP: human, in vivo, 4 mg, mean Cmax
ASSAY_READOUT: Cmax

[[record]]
molecule = "N=C(N)NC(=O)Cc1c(Cl)cccc1Cl [guanfacine]"
reported_measurement = "~3.58 ng/mL"

